target: Fes (UniProt P07332)
Sequence (P07332 whole entry, looked up): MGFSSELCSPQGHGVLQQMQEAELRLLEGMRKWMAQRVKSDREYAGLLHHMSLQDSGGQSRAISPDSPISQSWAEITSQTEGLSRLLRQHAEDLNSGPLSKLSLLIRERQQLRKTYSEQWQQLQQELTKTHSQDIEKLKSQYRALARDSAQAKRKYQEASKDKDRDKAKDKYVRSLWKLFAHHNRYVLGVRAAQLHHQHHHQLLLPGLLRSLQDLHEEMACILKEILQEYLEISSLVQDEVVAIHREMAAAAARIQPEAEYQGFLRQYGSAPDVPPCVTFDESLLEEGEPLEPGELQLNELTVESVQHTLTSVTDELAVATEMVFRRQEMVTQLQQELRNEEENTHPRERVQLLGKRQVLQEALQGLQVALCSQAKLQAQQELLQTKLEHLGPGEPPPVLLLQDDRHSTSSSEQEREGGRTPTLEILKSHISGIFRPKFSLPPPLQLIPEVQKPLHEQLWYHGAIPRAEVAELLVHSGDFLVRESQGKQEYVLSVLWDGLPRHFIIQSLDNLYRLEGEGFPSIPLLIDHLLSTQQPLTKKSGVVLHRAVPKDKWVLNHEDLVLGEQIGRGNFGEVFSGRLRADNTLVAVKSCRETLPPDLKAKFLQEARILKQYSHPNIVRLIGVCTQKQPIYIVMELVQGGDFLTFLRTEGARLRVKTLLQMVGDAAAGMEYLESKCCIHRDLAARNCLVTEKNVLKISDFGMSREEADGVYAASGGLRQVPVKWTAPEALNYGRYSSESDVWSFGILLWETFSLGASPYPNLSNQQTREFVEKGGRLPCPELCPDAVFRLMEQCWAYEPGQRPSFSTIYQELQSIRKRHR
testDescription: phosphorylation enrichment, bacterial display (enrichment ratio); higher = better substrate or ligand; peptides without Tyr show the background;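 note: 11-residue human phosphosite peptides and single-mutation variants displayed on the E. coli surface, counted by deep sequencing, each peptide's frequency after selection divided by its frequency in the unselected input library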;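 note: frequency after pTyr selection over input frequency; kinase dosed for 20-30% of maximal phosphorylation in three min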
Class (required): determined from phosphorylation enrichment; valid ranges are low: < 0.7; intermediate: ≥ 0.7 and < 1; high: ≥ 1

Before answering, review these 5 worked examples.
| sequenceData | group |
| --- | --- |
| GSESDYIVMPN [SCARB1_Y133] | high |
| VFGEEYEEQPR [ZMYM2_Y1033] | high |
| LPEENYQVLRF [ARHGAP1_Y365] | high |
| IDQDKYAVRFI [FLNA_Y2388] | intermediate |
| ANSSFHSTRSA [NUMA1_Y1836_Y1836H] | high |

Okay, next one:
Input line: State the band of VGGRIYIDDGL [PKLR_Y218]
Output line: intermediate

* * *

System: c-Abl (mouse)
testDescription: phosphorylation enrichment, bacterial display (enrichment ratio); higher = better substrate or ligand; peptides without Tyr show the background
metricName: phosphorylation enrichment

// worked examples, phosphorylation enrichment included
| sequenceData | metricName | result |
| --- | --- | --- |
| LEVPLYKNGVK [CPS1_Y1069_A1065E] | phosphorylation enrichment | 0.693 |
| PGLSSYGVPAS [FLNB_Y1530] | phosphorylation enrichment | 0.913 |
| SGPRCYTIAAL [TTR_Y125_R124C] | phosphorylation enrichment | 0.46 |
| PNRILYGDFWQ [MYH6_Y717_R721W] | phosphorylation enrichment | 0.778 |

Input line: Return reported phosphorylation enrichment; argument: TEDELYQLSLQ [RASGRP2_Y378]
Output line: 0.928

* * *

target: FGFR1 (UniProt P11362)
Sequence (P11362 whole entry, looked up): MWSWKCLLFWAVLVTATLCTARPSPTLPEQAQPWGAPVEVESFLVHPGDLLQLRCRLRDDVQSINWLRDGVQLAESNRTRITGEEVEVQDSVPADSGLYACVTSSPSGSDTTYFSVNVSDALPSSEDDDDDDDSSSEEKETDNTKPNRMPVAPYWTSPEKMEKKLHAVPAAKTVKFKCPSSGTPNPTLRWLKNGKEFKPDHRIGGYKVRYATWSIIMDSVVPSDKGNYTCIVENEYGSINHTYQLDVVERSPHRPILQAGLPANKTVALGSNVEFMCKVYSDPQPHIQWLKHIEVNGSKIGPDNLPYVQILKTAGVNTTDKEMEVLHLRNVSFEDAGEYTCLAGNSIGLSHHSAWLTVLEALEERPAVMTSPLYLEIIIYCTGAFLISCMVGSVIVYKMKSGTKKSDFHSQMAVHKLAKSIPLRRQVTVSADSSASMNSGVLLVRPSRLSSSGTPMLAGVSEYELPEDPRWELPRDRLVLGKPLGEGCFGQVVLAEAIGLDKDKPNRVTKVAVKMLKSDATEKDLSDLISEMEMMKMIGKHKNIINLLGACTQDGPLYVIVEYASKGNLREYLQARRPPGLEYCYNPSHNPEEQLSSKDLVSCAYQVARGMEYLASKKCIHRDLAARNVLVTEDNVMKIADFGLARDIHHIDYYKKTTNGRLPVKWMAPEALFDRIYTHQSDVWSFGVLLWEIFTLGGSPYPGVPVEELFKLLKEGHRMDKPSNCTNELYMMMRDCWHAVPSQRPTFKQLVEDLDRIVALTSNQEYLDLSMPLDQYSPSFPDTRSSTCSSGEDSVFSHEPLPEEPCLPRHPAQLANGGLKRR
testDescription: phosphorylation enrichment, bacterial display (enrichment ratio); higher = better substrate or ligand; peptides without Tyr show the background
Quick reference: phosphorylation enrichment of the listed items.
No unit in the answer, only the number.

// worked examples, phosphorylation enrichment included
| sequenceData | measuredNumber |
| --- | --- |
| GSRGKCSSGFR [ATM_Y332_Y332C] | 0.403 |
| KFVKMYDNHQL [MYO9A_Y203_YF] | 0.418 |
| FSTPPYLLEAA [BRIP1_Y921_S919P_YF] | 0.63 |
| ILCTVYAFKTR [GRM3_Y754] | 0.543 |

Input line: Return reported phosphorylation enrichment; argument: GSESDYIVMPN [SCARB1_Y133]
Output line: 5.92

Input line: Return reported phosphorylation enrichment; argument: NKKYHYRELPV [ERN2_Y860_H858Y]
Output line: 0.316

Input line: Return reported phosphorylation enrichment; argument: VAHAVYQAVLS [SMG1_Y549]
Output line: 0.656

Input line: Return reported phosphorylation enrichment; argument: NGTVTYAIIAG [CDH23_Y1672_V1675I]
Output line: 0.628

* * *

target: FGFR1 (UniProt P11362)
testDescription: phosphorylation enrichment, bacterial display (enrichment ratio); higher = better substrate or ligand; peptides without Tyr show the background
Outcome label depends on phosphorylation enrichment relative to 0.5: at/above gives yes, below gives no.

| sequenceData | group |
| --- | --- |
| IGSHAYGDQYR [IDH1_Y135_R132S] | no |
| IMNLLYHVVGW [GBA_Y412_T408M] | yes |
| LFMGDYVGRGY [PPP2CA_Y86_D88G] | yes |
| LYNQDYPIHCV [GATM_Y227_S231C] | yes |
| IIEDPYYGNDF [ACP1_Y132_S137F] | yes |
| KNDSIYVVKGN [KIT_Y823_N822I] | no |
| VNFDYYTVNLG [GFPT1_Y367_D366Y] | yes |
| GRQVIYTENER [GPR143_Y231_G229V] | no |
| DLDFTYIYPNI [PTEN_Y27_L25F] | yes |
| ARTNEYKIIRT [INA_Y87] | no |

Input line: Dear colleague, could you confirm whether VTAALYGCLFE [BTD_Y536_R538C_YF] has phosphorylation enrichment at or above 0.5?
Output line: yes

Input line: Dear colleague, could you confirm whether FADPFYDFEIE [ZC3H18_Y372_YF] has phosphorylation enrichment at or above 0.5?
Output line: yes

Input line: Dear colleague, could you confirm whether IDQDKYAVRFI [FLNA_Y2388] has phosphorylation enrichment at or above 0.5?
Output line: no

Input line: Dear colleague, could you confirm whether KVPELYEIHTE [BCR_Y554_K558T] has phosphorylation enrichment at or above 0.5?
Output line: yes

Input line: Dear colleague, could you confirm whether LDLPGYCPLRE [CCDC116_Y291] has phosphorylation enrichment at or above 0.5?
Output line: yes

Input line: Dear colleague, could you confirm whether GDPTEYFITAI [IGSF22_Y501_S503I_YF] has phosphorylation enrichment at or above 0.5?
Output line: yes

Input line: Dear colleague, could you confirm whether LFLACYCIGGG [UBD_Y161] has phosphorylation enrichment at or above 0.5?
Output line: yes

Input line: Dear colleague, could you confirm whether SAGSSYSISVI [PAX5_Y179_G183V] has phosphorylation enrichment at or above 0.5?
Output line: no

Input line: Dear colleague, could you confirm whether LNWIFYKDQTG [RS1_Y166_YF] has phosphorylation enrichment at or above 0.5?
Output line: no

Input line: Dear colleague, could you confirm whether YGSGNYNVFGN [HNRNPA2B1_Y300_D302V] has phosphorylation enrichment at or above 0.5?
Output line: yes

Input line: Dear colleague, could you confirm whether RSYSPCDYQPC [TNS1_Y796_Y796C] has phosphorylation enrichment at or above 0.5?
Output line: yes
